Reference for the values: patent US20260183370A1

target of assay: T1, NPR-C (natriuretic peptide receptor C), expressed on Hek293 cells (UniProt P17342 27-541, limits assumed)
T1 construct: whole, on cells
T1 sequence (looked up): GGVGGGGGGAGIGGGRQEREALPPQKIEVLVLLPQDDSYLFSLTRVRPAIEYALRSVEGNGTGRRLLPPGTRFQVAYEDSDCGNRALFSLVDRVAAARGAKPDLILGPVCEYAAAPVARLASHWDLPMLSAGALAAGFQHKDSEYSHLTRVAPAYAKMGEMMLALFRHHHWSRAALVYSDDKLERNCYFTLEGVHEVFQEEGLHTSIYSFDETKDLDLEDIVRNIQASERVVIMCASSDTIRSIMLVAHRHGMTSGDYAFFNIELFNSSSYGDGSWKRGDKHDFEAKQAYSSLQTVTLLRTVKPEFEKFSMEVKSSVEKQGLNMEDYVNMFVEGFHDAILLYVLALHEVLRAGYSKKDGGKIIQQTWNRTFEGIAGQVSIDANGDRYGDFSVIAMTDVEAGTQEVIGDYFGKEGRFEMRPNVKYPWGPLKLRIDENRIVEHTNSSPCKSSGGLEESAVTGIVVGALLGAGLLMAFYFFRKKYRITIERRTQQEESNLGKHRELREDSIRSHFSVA
assay method text: competition with fluorescein-labelled CNP-38 27d on NPR-C expressing Hek293 cells, flow cytometry (MFI), 4PL fit; ratio to CNP-38
Bridge positions count the residues as written; N and C are the ends. Side chains are listed from the residue outwards. Ends that are not written are not given here. * marks the point of attachment. Hexanoyl(6-maleimido) = O=C1C=CC(=O)N1CCCCCC(=O)*; reversible prodrug linker = not defined here
observable: IC50 of PEGylated CNP-38/IC50 CNP-38 (ratio)
Write the number in ratio without appending the unit.

Solved entries (count: 2):
{PEG 5 kDa-Hexanoyl(6-maleimido)}-LQEHPNARKYKGANKKGLSKGCFGLKLDRIGSMSGLGC (disulfide 22-38) [Permanent N-terminal CNP-38 PEG 5 kDa conjugate 15e] : 0.53
LQEHPNARKYKGANKKGLSKGCFGLKLDRIGSMSGLGC (5 kDa PEG stably attached through maleimidohexanoyl/thiol to the side chain of Lys26 (ring lysine); disulfide Cys22-Cys38) [Permanent Lys26 CNP-38 PEG 5 kDa conjugate 19e] : 1.1

// below: IC50 of PEGylated CNP-38/IC50 CNP-38 requested for another binder
Note to self: IC50 of PEGylated CNP-38/IC50 CNP-38 recorded for LQEHPNARKYKGANKKGLSKGCFGLK([reversible prodrug linker-4x10 kDa PEG])LDRIGSMSGLGC (disulfide 22-38; reading uncertain, This is a reversible conjugate with an in vitro release half-life of 9.5 d) [Reversible Lys26 CNP-38 PEG4x10 kDa conjugate 11i] was 91
